Test system: E. cloacae
Assay: AK assay 384-well format, Prestwick library screening
Type: cell-based, Enterobacter cloacae
Details: Enterobacter cloacae, 3 h; 50 μM final drug concentration; planktonic; cutoff for positive-scoring molecules 3-fold increase; read-out: AK-based Prestwick Library Screening Results, E. cloacae (fold increase in extracellular AK activity)
Counter-ions that a name gives are not always drawn.
Consider the following compounds; for each one, report its fold induction at 50 µM.
Simply state the number, no unit and no words.

Value of measured fold induction at 50 µM for the entry C[N+]1(C)[C@@H]2CC[C@H]1C[C@@H](OC(=O)C(CO)c1ccccc1)C2 (stereo partly drawn) [Methylatropine nitrate] : 0.8

Memo: `C[C@]12CC[C@H](O)C[C@H]1CC[C@@H]1[C@@H]2C[C@@H](O)[C@]2(C)[C@@H](C3=CC(=O)OC3)CC[C@]12O` , reported fold induction at 50 µM: 0.7

Reported fold induction at 50 µM ( `CCS(=O)(=O)CCn1c([N+](=O)[O-])cnc1C` ) = 1.5

fold induction at 50 µM recorded for this compound, `Cc1nnc(NS(=O)(=O)c2ccc(N)cc2)s1` , is 0.9

Consider `COc1ccc(C(=O)c2ccccc2)c(O)c1` . Its measured fold induction at 50 µM is 0.6

According to the records, this compound Cc1nnc(SCC2=C(C(=O)O)N3C(=O)[C@@H](NC(=O)Cn4cnnn4)[C@H]3SC2)s1 [Cefazolin sodium salt] displays fold induction at 50 µM of 0.9

According to the records, this compound Cn1nnnc1SCC1=C(C(=O)O)N2C(=O)[C@@H](NC(=O)[C@H](O)c3ccccc3)[C@H]2SC1 [Cefamandole sodium salt] displays fold induction at 50 µM of 0.9

For CN(C)[C@@H]1C(O)=C(C(N)=O)C(=O)[C@@]2(O)C(O)=C3C(=O)c4c(O)ccc(Cl)c4[C@@H](O)[C@H]3C[C@@H]12 [Demeclocycline hydrochloride] the compound record lists fold induction at 50 µM as 1.3

Query CCOC(=O)C1=C(C)NC(C)=C(C(=O)OC)C1c1cccc([N+](=O)[O-])c1 (stereo not drawn) yields fold induction at 50 µM of 1.4

Reported fold induction at 50 µM of CC1(C)O[C@@H]2C[C@H]3[C@@H]4CCC5=CC(=O)CC[C@]5(C)[C@@]4(F)[C@@H](O)C[C@]3(C)[C@]2(C(=O)CCl)O1 [Halcinonide] : 0.8

Lab book: fold induction at 50 µM of CN[C@@H]1[C@H](O)[C@H](NC)[C@H]2O[C@@]3(O)C(=O)C[C@@H](C)O[C@H]3O[C@@H]2[C@H]1O [Spectinomycin dihydrochloride] noted as 0.6

get_value(item= `CCOc1ccc2c(c1)C(C)=CC(C)(C)N2` , readout=fold induction at 50 µM) returns 1.4

Measured fold induction at 50 µM, `Nc1ncnc2c1ncn2[C@@H]1O[C@H](CO)[C@@H](O)[C@@H]1O` : 1.8

Data point: CCCCCN(CCCCC)C(=O)C(CCC(=O)O)NC(=O)c1ccc(Cl)c(Cl)c1 (stereo not drawn) [Lorglumide sodium salt] ; fold induction at 50 µM = 1.3

So, O=C(O)CCNC(=O)c1ccc(/N=N/c2ccc(O)c(C(=O)O)c2)cc1 [Balsalazide Sodium] ? Its fold induction at 50 µM was 0.4

###

System: E. cloacae
Assay: AK assay 384-well format, Prestwick library screening
Format: cell-based, Enterobacter cloacae
Conditions: Enterobacter cloacae, 3 h, 50 μM final drug concentration; planktonic; […]; read-out: AK-based Prestwick Library Screening Results, E. cloacae (fold increase in extracellular AK activity)
Counter-ions that a name gives are not always drawn.
Could you please mark yes for values of fold induction at 50 µM below 0.9 and no for values at or above it?

[Q] Does the reported fold induction at 50 µM of the following compound sit strictly below 0.9? `C[C@H]1C(=O)O[C@@H]2CCN3CC=C(COC(=O)[C@](C)(O)[C@]1(C)O)[C@H]23`
[A] no

[Q] Field: below-cutoff. Rule: recorded fold induction at 50 µM strictly less than 0.9. Subject: `C=C(C)[C@@H]1[C@H]2OC(=O)[C@@H]1[C@]1(O)C[C@H]3O[C@]34C(=O)O[C@H]2[C@]14C`
[A] yes

[Q] Lab note: fold induction at 50 µM threshold 0.9. Does this compound come in strictly under it? `CCN1C[C@]2(C)CC[C@H](O)[C@]34C1[C@@H](C[C@H]23)[C@@]1(O)C[C@H](OC)[C@H]2C[C@@H]4[C@@H]1[C@H]2O`
[A] no

[Q] # check: fold induction at 50 µM < 0.9 for `COc1cc2c(cc1O)[C@@H]1Cc3ccc(OC)c(O)c3CN1CC2`
[A] no

[Q] For `CC(=O)Oc1cc(C(F)(F)F)ccc1C(=O)O` , is the recorded fold induction at 50 µM below the cut-off of 0.9?
[A] no

[Q] Could you please tell me whether fold induction at 50 µM recorded for `CNC[C@H](O)[C@@H](O)[C@H](O)[C@H](O)CO` is less than 0.9?
[A] yes

[Q] Does this compound meet the criterion fold induction at 50 µM < 0.9? CN(C)CCOC(=O)COc1ccc(Cl)cc1 [Meclofenoxate hydrochloride]
[A] no

###

System: S. aureus strain USA300-0114
Experiment: AK assay 384-well format, Prestwick library screening
Format: cell-based, Staphylococcus aureus
Details: Staphylococcus aureus, USA300, 3 h; 50 μM final drug concentration; 384-well format; cutoff for positive-scoring molecules 3-fold increase; read-out: AK-based Prestwick Library Screening Results, S. aureus (increase in extracellular AK activity)
Where a name gives a salt, the structure may show the parent alone.
Use Y when the recorded fold induction at 50 µM is no lower than 0.8; use N when it is lower.

[Q] Please indicate if the recorded fold induction at 50 µM for Cc1ccc(/C(=C\CN2CCCC2)c2ccccn2)cc1 [Triprolidine hydrochloride] meets or exceeds 0.8.
[A] N

[Q] fold induction at 50 µM >= 0.8 for [H]/N=C(/N)N/C(=N/[H])NCCc1ccccc1 [Phenformin hydrochloride] ?
[A] N

[Q] Exam item: decide whether the reported fold induction at 50 µM for Cc1onc(-c2ccccc2Cl)c1C(=O)N[C@@H]1C(=O)N2[C@@H]1SC(C)(C)[C@@H]2C(=O)O [Cloxacillin sodium salt] is at least 0.8.
[A] Y

[Q] Entry Clc1cccc(Cl)c1N=C1NCCN1 [Clonidine hydrochloride] : is its fold induction at 50 µM no less than 0.8?
[A] N

[Q] In plain terms: is recorded fold induction at 50 µM at least 0.8 for C#C[C@]1(O)CC[C@H]2[C@@H]3CCC4=C(CCC(=O)C4)[C@H]3CC[C@@]21C [Norethynodrel] ?
[A] N

###

Tested on: S. aureus strain USA300-0114
Assay: AK assay 384-well format, Prestwick library screening
Type: cell-based, Staphylococcus aureus
Details: Staphylococcus aureus, USA300, 3 h; planktonic S. aureus; 50 μM final drug concentration; 384-well; cutoff for positive-scoring molecules 3-fold increase; read-out: AK-based Prestwick Library Screening Results: S. aureus (increase in extracellular AK activity)
Structures can show the parent of a compound that is named as a salt.
Label scheme for fold induction at 50 µM: low end: < 0.9; middle: ≥ 0.9 and < 2; high end: ≥ 2

[Q] Would you mind sorting `COc1cc(Cc2cnc(N)nc2N)cc(OC)c1OC` into the appropriate category?
[A] middle

[Q] Please let me know in which category the item CN(C)[C@@H]1C(O)=C(C(N)=O)C(=O)[C@@]2(O)C(O)=C3C(=O)c4c(O)cccc4[C@@](C)(O)[C@H]3C[C@@H]12 [Tetracycline hydrochloride] belongs.
[A] high end

[Q] Returns: class label. Input: `CO[C@@H]1[C@@H](O[C@@H]2O[C@H](C)[C@@H](O[C@H]3C[C@@](C)(O)[C@@H](OC(=O)CC(C)C)[C@H](C)O3)[C@H](N(C)C)[C@H]2O)[C@@H](CC=O)C[C@@H](C)[C@@H](O)/C=C/C=C/C[C@@H](C)OC(=O)C[C@H]1OC(C)=O`
[A] high end

[Q] Hi there! Could you help me figure out the category for CC/C(=C(\c1ccccc1)c1ccc(OCCN(C)C)cc1)c1ccccc1 [Tamoxifen citrate] please?
[A] high end

[Q] // return the class label for NC(=O)N1c2ccccc2C=Cc2ccccc21 [Carbamazepine]
[A] middle

[Q] Which category does the recorded fold induction at 50 µM put CC(=O)OCC(=O)[C@@]1(O)[C@H](C)C[C@H]2[C@@H]3CCC4=CC(=O)C=C[C@]4(C)[C@@]3(F)[C@@H](O)C[C@@]21C [Dexamethasone acetate] in?
[A] middle

[Q] For this molecule, which bin applies? `O=C(CCCN1CCC2(CC1)C(=O)NCN2c1ccccc1)c1ccc(F)cc1`
[A] middle

[Q] Lab note: which band did `O=C(O)CCC(=O)c1ccc(-c2ccccc2)cc1` land in?
[A] low end

[Q] Sort `O=C1O[C@H]([C@@H](O)CO)C(O)=C1O` into one of the categories.
[A] low end

[Q] Exercise: read the entry Cc1cnc(C(=O)NCCc2ccc(S(=O)(=O)NC(=O)NC3CCCCC3)cc2)cn1 [Glipizide] and state which class it falls under.
[A] middle

[Q] Lab note: sort CN(C)CCn1nnnc1SCC1=C(C(=O)O)N2C(=O)[C@@H](NC(=O)Cc3csc(N)n3)[C@H]2SC1 [Cefotiam hydrochloride] into the matching fold induction at 50 µM band.
[A] high end

[Q] Please indicate the class for Clc1ccc(COC(Cn2ccnc2)c2ccc(Cl)cc2Cl)cc1 (stereo not drawn) [Econazole nitrate] based on its fold induction at 50 µM.
[A] high end

Reference source: patent US10004701B2
